Readout Kind: pIC50
Scale explanation: pIC50 corresponds to minus log10 of a concentration expressed in moles per litre.

The molecule N=Cc1ccc(-c2cccnc2)s1.N=Cc1ccc(-c2cccnc2)s1.NCc1ccc(-c2cccnc2)s1 , when measured on Cytochrome P450 3A4 (Homo sapiens, UniProt P08684), yielded pIC50 of 4.11

Field pIC50 (system: Cytochrome P450 3A4 (Homo sapiens, UniProt P08684)) for entry Fc1ccc(-c2ccsc2)cn1 = 3.94

Simply: c1cncc(-c2ccsc2)c1 , Cytochrome P450 3A4 (Homo sapiens, UniProt P08684), pIC50 = 4.24

---

Would you kindly list pIC50 for each of these molecules?
Biological target: Cytochrome P450 2B6 (Homo sapiens)
Sequence (P20813 whole entry): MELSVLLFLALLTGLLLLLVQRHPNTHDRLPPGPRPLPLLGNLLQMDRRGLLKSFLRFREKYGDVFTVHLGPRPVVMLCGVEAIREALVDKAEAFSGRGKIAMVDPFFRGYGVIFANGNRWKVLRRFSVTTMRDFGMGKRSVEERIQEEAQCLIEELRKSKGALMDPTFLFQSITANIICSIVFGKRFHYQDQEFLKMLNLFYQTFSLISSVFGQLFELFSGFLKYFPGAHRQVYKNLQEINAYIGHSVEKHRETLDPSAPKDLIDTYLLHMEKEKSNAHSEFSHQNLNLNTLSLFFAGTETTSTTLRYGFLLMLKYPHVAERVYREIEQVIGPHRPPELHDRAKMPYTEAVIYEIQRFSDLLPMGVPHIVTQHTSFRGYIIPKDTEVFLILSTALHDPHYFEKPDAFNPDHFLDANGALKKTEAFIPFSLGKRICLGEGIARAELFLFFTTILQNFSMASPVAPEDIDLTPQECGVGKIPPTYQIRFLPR
A value of pIC50 is the negative decimal logarithm of a concentration given in moles per litre.

// sample CCn1cnc(-c2cccnc2)c1 , its pIC50 was 4.08

Kindly note the recorded pIC50 for c1cncc(-c2ccsc2)c1 , which is 4.23

Quick note, pIC50 for CNc1ccc(-c2cccnc2)s1 landed at 5.17

Looking up C[n+]1c[nH]cc1-c1cccnc1 , I found its pIC50 recorded as 3.84

The recorded pIC50 for entry Cn1cnc(-c2cccnc2)c1 equals 3.84

N=Cc1ccc(-c2cccnc2)s1.N=Cc1ccc(-c2cccnc2)s1.NCc1ccc(-c2cccnc2)s1 has a reported pIC50 of 3.59

---

Let's go through some pIC50 measurements on Cytochrome P450 2E1 (Homo sapiens, UniProt P05181) together.
Sequence (P05181 whole entry): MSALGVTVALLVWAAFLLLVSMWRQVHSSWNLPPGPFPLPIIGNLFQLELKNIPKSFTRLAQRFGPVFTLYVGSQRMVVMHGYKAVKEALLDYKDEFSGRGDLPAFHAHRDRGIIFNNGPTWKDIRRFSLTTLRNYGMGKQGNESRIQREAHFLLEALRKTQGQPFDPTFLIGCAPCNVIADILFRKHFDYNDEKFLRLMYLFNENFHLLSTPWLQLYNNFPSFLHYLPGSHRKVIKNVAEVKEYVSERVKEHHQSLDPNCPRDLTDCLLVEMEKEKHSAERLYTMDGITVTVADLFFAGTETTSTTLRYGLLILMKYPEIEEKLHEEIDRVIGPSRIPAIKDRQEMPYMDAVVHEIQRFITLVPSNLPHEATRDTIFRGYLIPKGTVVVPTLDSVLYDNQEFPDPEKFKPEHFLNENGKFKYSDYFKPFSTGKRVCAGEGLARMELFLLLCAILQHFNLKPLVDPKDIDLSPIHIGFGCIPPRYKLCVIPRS
// pIC50 is dimensionless: -log10 of concentration (M)

Short answer for Cn1cnc(-c2cccnc2)c1 : pIC50 was 5.39

Lab note: measured pIC50 of N=Cc1ccc(-c2cccnc2)s1.N=Cc1ccc(-c2cccnc2)s1.NCc1ccc(-c2cccnc2)s1 was 4.11

Input CNc1ccc(-c2cccnc2)s1 . Output pIC50: 4.51

Consider C[n+]1c[nH]cc1-c1cccnc1 . Its measured pIC50 is 5.39

// recorded pIC50 for c1cncc(-c2cccs2)c1 : 5.39

Input Fc1ccc(-c2ccsc2)cn1 . Output pIC50: 5.14

---

pIC50, Cytochrome P450 2B6 (Homo sapiens): measured values
Please report pIC50 as the negative decimal logarithm of the molar concentration, giving only the number.

# pIC50 (compound: CC(=O)c1ccc(-c2cccnc2)s1 ) is 3.66

compound O/N=C/c1ccc(-c2cccnc2)o1 , pIC50 observed: 3.43

Entry O/N=C\c1ccc(-c2cccnc2)o1 — recorded pIC50 = 3.89

---

As a worked illustration, we turn to IC50 data collected for Cytochrome P450 2A6 (Homo sapiens, UniProt P11509).
Kindly answer with a numeric value in µM, unit omitted.

GET /value?item= Cc1cn(-c2cccnc2)cn1 &field=IC50 returns 1

The measured IC50 associated with N=Cc1ccc(-c2cccnc2)s1.N=Cc1ccc(-c2cccnc2)s1.NCc1ccc(-c2cccnc2)s1 reads 3.7

The compound listed as c1cncc(-c2ccsc2)c1 has a reported IC50 of 1.4

Fc1ccc(-c2ccsc2)cn1 yielded IC50 of 5.8

The recorded IC50 for entry O/N=C\c1ccc(-c2cccnc2)o1 equals 4.2

---

tested on: CYP2C19 versus CYP2A6; test: Ratio of inhibition of human cytochrome P-450 2C19 to 2A6 was determined; Expressed as IC50(CYP2C19)/IC50(CYP2A6)
Would you please tag the item 1 when its selectivity ratio is 20 or above, and 0 when it is below?

# check: selectivity ratio of O/N=C\c1ccc(-c2cccnc2)o1 is greater than or equal to 20
1

Hello, I need to know if CC(=O)c1ccc(-c2cccnc2)s1 has measured selectivity ratio not below 20. Thanks!
0

Textbook exercise: given the entry O/N=C/c1ccc(-c2cccnc2)s1 , state whether its selectivity ratio is greater than or equal to 20.
1

API: above_or_equal(metric=selectivity ratio, cutoff=20) for item c1cncc(-c2ccsc2)c1
1

Is selectivity ratio for C[n+]1c[nH]cc1-c1cccnc1 at or above 20?
1

Tell me whether selectivity ratio is at least 20 here: O/N=C/c1ccc(-c2cccnc2)o1
0

Please tell me: is the compound Fc1ccc(-c2ccsc2)cn1 at or over 20 in terms of selectivity ratio?
1

I'd appreciate it if you could say whether CCn1cnc(-c2cccnc2)c1 has selectivity ratio at least equal to 20.
0

State whether the measured selectivity ratio reaches 20, counting equality as reaching it, for CNc1ccc(-c2cccnc2)s1
0

---

Readout Kind: IC50 (µM)
Express your answer in µM, writing the number without its unit.

Noted IC50 for Cn1cnc(-c2cccnc2)c1 , tested on Cytochrome P450 2C9 (Homo sapiens): 79.5

Cytochrome P450 2C9 (Homo sapiens) assay, molecule O/N=C\c1ccc(-c2cccnc2)o1 , recorded IC50 = 398

Test item CNc1ccc(-c2cccnc2)s1 ; Cytochrome P450 2C9 (Homo sapiens); reported IC50 was 2.1

Field IC50 (Cytochrome P450 2C9 (Homo sapiens)), entry O/N=C/c1ccc(-c2cccnc2)o1 : 86.2

Value (IC50, Cytochrome P450 2C9 (Homo sapiens)) for record CC(=O)c1ccc(-c2cccnc2)s1 = 98.2

Field IC50 (Cytochrome P450 2C9 (Homo sapiens)), entry c1cncc(-c2cccs2)c1 : 99.2

O/N=C/c1ccc(-c2cccnc2)s1 on Cytochrome P450 2C9 (Homo sapiens) gives IC50 = 223

Case CCn1cnc(-c2cccnc2)c1 , Cytochrome P450 2C9 (Homo sapiens), IC50 recorded as 75.2

Given the molecule c1cncc(-c2ccsc2)c1 and test system Cytochrome P450 2C9 (Homo sapiens), the measured IC50 is 96.3

---

test system: CYP2C9 versus CYP2A6; experiment: Ratio of inhibition of human cytochrome P-450 2C9 to 2A6 was determined; Expressed as IC50(CYP2C9)/IC50(CYP2A6)
Readout Kind: selectivity ratio
// print number alone

Reported selectivity ratio ( O/N=C/c1ccc(-c2cccnc2)s1 ) = 159

// recorded selectivity ratio for c1cncc(-c2ccsc2)c1 : 69

For this compound ( O/N=C\c1ccc(-c2cccnc2)o1 ), measured selectivity ratio is 94

Form field selectivity ratio, entry CC(=O)c1ccc(-c2cccnc2)s1 : 11

CCn1cnc(-c2cccnc2)c1 yielded selectivity ratio of 24

The value of selectivity ratio measured for the compound O/N=C/c1ccc(-c2cccnc2)o1 turned out to be 1

Kindly note the recorded selectivity ratio for C[n+]1c[nH]cc1-c1cccnc1 , which is 106

Record CNc1ccc(-c2cccnc2)s1 . Reported selectivity ratio: 0.6

---

tested on: CYP2D6 versus CYP2A6; test: Ratio of inhibition of human cytochrome P-450 2D6 to 2A6 was determined; Expressed as IC50(CYP2D6)/IC50(CYP2A6)
Readout Kind: selectivity ratio
Lab note: record just the number, no unit beside it.

The measured selectivity ratio that c1cncc(-c2ccsc2)c1 showed for CYP2D6 versus CYP2A6 is 177

The compound O/N=C/c1ccc(-c2cccnc2)s1 , when measured on CYP2D6 versus CYP2A6, yielded selectivity ratio of 136

Item: NCc1ccc(-c2cccnc2)o1 | System: CYP2D6 versus CYP2A6 | selectivity ratio: 4.1

Entry CCn1cnc(-c2cccnc2)c1 under CYP2D6 versus CYP2A6 had selectivity ratio of 111

Query Cn1cnc(-c2cccnc2)c1 on CYP2D6 versus CYP2A6; selectivity ratio returned: 289

Record Fc1ccc(-c2ccsc2)cn1 / CYP2D6 versus CYP2A6, selectivity ratio recorded as 34

# selectivity ratio measured on CYP2D6 versus CYP2A6 for item C[n+]1c[nH]cc1-c1cccnc1 = 289

# selectivity ratio measured on CYP2D6 versus CYP2A6 for item CC(=O)c1ccc(-c2cccnc2)s1 = 45

CNc1ccc(-c2cccnc2)s1 on CYP2D6 versus CYP2A6 gives selectivity ratio = 4.1

---

system: CYP2B6 versus CYP2A6; assay: Ratio of inhibition of human cytochrome P-450 2B6 to 2A6 was determined; Expressed as IC50(CYP2B6)/IC50(CYP2A6)
Please provide measured selectivity ratio for the entries that follow.
Provide a numeric answer; units are not to be included.

For CC(=O)c1ccc(-c2cccnc2)s1 the compound record lists selectivity ratio as 25

So for CNc1ccc(-c2cccnc2)s1 , the logged selectivity ratio turned out to be 1.9

# selectivity ratio of c1cncc(-c2ccsc2)c1 = 42

// field: selectivity ratio; key: Fc1ccc(-c2ccsc2)cn1 ; value = 12

Value of measured selectivity ratio for the entry O/N=C/c1ccc(-c2cccnc2)s1 : 153

Consider CCn1cnc(-c2cccnc2)c1 . Its measured selectivity ratio is 26

The compound listed as C[n+]1c[nH]cc1-c1cccnc1 shows selectivity ratio equal to 195
